assay system: T1, full-length beta-Catenin (Uniprot ID P35222) (Homo sapiens (Human), UniProt P35222 2-781)
T1 construct: also called B-Catenin; bCat
T1 sequence: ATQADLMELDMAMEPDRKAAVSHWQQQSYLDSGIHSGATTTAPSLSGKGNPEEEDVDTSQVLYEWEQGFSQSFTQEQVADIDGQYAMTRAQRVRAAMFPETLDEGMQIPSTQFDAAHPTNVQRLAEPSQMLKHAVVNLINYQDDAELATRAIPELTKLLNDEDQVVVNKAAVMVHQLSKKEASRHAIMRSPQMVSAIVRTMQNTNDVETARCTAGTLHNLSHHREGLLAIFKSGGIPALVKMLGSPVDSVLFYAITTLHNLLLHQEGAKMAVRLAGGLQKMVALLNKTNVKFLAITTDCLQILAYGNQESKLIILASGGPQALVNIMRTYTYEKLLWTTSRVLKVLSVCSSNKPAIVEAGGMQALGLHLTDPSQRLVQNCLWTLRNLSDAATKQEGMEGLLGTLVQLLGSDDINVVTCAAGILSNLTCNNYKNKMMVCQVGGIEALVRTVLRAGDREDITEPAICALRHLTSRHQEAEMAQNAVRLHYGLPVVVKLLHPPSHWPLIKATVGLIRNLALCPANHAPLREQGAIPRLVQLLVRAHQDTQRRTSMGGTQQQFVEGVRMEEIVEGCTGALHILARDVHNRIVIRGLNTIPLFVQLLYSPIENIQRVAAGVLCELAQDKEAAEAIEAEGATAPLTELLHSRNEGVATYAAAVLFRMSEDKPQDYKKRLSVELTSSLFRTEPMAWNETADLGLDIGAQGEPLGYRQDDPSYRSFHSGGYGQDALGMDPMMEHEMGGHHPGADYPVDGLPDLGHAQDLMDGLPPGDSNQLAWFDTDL
procedure text: Alphascreen competition; biotin-TCF4(10-53) probe with full-length beta-catenin
Starred links: 1 amine or outer side, 2 acyl side, 3 side chain; linkers in the order of their positions; H or OH if unused. Positions of bridges follow the written chain, without caps; N, C: chain ends. Non-standard residues stand in square brackets, D forms with d. Primed or numbered codes have the meaning given here. B5(10) = 2-amino-2-(pent-4-en-1-yl)hept-6-enoic acid, bis(4-pentenyl)glycine, stitching residue bearing both staples, C=CCCCC(CCCC=C)(N[*:1])C(=O)[*:2]; B5(4) = 2,2-bis(4-pentenyl)glycine = 2-amino-2-(pent-4-en-1-yl)hept-6-enoic acid (stitching residue), C=CCCCC(CCCC=C)(N[*:1])C(=O)[*:2]; PyrS(3) = (S)-1-((allyloxy)carbonyl)-3-aminopyrrolidine-3-carboxylic acid, stapling residue, C=CCOC(=O)N1CC[C@@](N[*:1])(C(=O)[*:2])C1; PyrS″ = (S)-1-((allyloxy)carbonyl)-3-aminopyrrolidine-3-carboxylic acid (stapling residue), C=CCOC(=O)N1CC[C@@](N[*:1])(C(=O)[*:2])C1; Phe(4-COOH) = N[C@@H](Cc1ccc(C(=O)O)cc1)C(=O)O; S7 = C[C@@](CCCCCC=[*:3])(N[*:1])C(=O)[*:2]; Phe(3-OMe) = COc1cccc(C[C@H](N)C(=O)O)c1; 2Nal = N[C@@H](Cc1ccc2ccccc2c1)C(=O)O; hTyr = N[C@@H](CCc1ccc(O)cc1)C(=O)O; αAllylPro = C=CC[C@@]1(C(=O)O)CCCN1; R8 = C=CCCCCCC[C@@](C)(N)C(=O)O; Aad = N[C@@H](CCCC(=O)O)C(=O)O; S8 = C=CCCCCCC[C@](C)(N)C(=O)O
reported property: log10(EC50) (log10 of the value in µM)
Give log10 of EC50, with EC50 taken in µM.

The recorded log10(EC50) for entry Ac-FDA[R8]DDAA[Phe(3-OMe)]V[PyrS″]FWQ-NH2 (staple 4-11; not fully specified; printed as Ac-Phe-Asp-Ala-R8-Asp-Asp-Ala-Ala-3OMeF-Val-PyrS-Phe-Trp-Gln-NH2, Stapled peptide composition) [I-104] equals 0.79

The recorded log10(EC50) for entry Ac-[αAllylPro]DA[B5(4)]DEAAFV[S7]FWQ-NH2 (staple 1-4, 4-11, Stitched (two-staple) peptide composition) [I-132] equals 0.71

The recorded log10(EC50) for entry Ac-[αAllylPro]DA[B5(10)]D[Aad]AAFV[S8]FWQ-NH2 (staple 1-4, 4-11, Stitched (two-staple) peptide composition) [I-129] equals -1.08

The recorded log10(EC50) for entry Ac-FDA[R8]D[2Nal]AAFV[PyrS″]FWQ-NH2 (staple 4-11; also: later-eluting HPLC peak (staple isomer), Stapled peptide composition) [I-116] equals 0.56

The recorded log10(EC50) for entry Ac-FDA[R8]DDAA[hTyr]V[PyrS(3)]FWQ-NH2 (staple 4-11, Stapled peptide composition) [I-120] equals 0.66

The recorded log10(EC50) for entry Ac-FDA[R8]DDAAFV[PyrS″][Phe(4-COOH)]WQ-NH2 (staple 4-11, Stapled peptide composition; same description as I-110, separate later-eluting HPLC peak (staple isomer)) [I-111] equals 0.88

The recorded log10(EC50) for entry Ac-FDA[R8]DDAAFV[PyrS(3)]DWQ-NH2 (staple 4-11, Stapled peptide composition) [I-121] equals 0.65

The recorded log10(EC50) for entry Ac-FDA[R8]DDAAFV[PyrS″][Phe(4-COOH)]WQ-NH2 (staple 4-11; not fully specified; printed as Ac-Phe-Asp-Ala-R8-Asp-Asp-Ala-Ala-Phe-Val-PyrS-4COOHF-Trp-Gln-NH2, Stapled peptide composition) [I-110] equals 0.93
